FYI, the data here is from ChEMBL document CHEMBL3621167.

- targetDesc: 5-hydroxytryptamine receptor 2B (Homo sapiens, UniProt P41595)
- Sequence (P41595 whole entry): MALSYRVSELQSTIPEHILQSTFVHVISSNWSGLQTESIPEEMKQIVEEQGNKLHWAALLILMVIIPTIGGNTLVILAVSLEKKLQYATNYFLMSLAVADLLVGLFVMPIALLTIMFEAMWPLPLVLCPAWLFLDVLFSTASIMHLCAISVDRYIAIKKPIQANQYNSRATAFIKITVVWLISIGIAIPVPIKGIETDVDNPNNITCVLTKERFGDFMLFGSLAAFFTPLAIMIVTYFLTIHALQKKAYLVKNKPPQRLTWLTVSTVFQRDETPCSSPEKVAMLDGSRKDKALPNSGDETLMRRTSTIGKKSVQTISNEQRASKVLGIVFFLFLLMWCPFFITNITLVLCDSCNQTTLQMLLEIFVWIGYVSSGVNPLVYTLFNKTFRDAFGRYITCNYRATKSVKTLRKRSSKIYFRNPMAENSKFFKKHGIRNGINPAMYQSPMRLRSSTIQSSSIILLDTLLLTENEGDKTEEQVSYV
pKi: −log10 of the molar value.
measurementName: pKi

Cc1[nH]c2ccc(Cl)cc2c1CCN(C)C | 6.61

----------
- targetDesc: UniProt:P50406
- Sequence (P50406 whole entry): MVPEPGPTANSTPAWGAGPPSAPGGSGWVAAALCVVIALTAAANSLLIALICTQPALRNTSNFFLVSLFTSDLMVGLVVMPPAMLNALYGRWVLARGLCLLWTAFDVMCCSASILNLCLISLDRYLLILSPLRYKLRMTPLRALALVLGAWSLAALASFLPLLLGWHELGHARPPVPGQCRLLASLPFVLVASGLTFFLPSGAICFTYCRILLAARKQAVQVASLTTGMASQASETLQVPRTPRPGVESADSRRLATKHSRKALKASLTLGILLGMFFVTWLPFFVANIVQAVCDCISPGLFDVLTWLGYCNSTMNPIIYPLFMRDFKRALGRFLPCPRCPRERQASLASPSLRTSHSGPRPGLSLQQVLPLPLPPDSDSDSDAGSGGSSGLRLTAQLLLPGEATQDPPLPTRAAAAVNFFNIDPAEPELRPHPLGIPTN
- assayMethodText: Agonist activity at 5-HT6 receptor (unknown origin)
measurementName: EC50 (nM)

Cc1[nH]c2ccc(Cl)cc2c1CCN(C)C | 44.8

----------
- targetDesc: 5-hydroxytryptamine receptor 7 (Homo sapiens, UniProt P34969)
- Sequence (P34969 whole entry): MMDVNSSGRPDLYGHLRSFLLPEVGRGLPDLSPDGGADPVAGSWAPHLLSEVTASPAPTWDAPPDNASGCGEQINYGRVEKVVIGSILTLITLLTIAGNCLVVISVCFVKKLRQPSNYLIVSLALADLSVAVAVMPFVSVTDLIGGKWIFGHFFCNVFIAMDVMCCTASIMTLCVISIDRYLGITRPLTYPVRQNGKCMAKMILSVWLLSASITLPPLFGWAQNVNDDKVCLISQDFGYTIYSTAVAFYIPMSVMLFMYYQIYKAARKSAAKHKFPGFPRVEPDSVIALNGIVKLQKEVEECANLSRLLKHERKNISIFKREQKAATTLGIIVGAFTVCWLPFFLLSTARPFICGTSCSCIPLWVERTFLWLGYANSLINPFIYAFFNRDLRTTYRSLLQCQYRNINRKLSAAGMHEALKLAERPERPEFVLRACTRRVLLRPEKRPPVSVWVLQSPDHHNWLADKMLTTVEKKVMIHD
pKi: −log10 of the molar value.
measurementName: pKi

Cc1[nH]c2ccc(Cl)cc2c1CCN(C)C | 6.54
